Would you kindly list ΔTm at 10 µM for each of these molecules?
molecular target: GSG2 (Homo sapiens, UniProt Q8TF76); construct: purchased in-house thermal shift (DSF) kinase panel (SGC Frankfurt); Promega NanoBRET for AURKA/B/C; assay: Thermal shift assay; format: binding; conditions: compound 10 µM; n = 3; read-out: ΔTm GSG2
Sequence (Q8TF76 465-798): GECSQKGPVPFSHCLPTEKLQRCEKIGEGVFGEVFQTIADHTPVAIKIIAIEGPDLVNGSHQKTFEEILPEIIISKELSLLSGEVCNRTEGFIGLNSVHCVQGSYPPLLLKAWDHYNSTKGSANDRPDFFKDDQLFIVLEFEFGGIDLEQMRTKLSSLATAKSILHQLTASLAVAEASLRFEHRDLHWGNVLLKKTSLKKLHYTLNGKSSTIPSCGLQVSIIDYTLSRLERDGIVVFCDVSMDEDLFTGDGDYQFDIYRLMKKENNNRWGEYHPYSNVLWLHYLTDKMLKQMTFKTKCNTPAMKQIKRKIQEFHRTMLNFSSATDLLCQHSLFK
API: value field is a number in °C; no unit string.

Given item CCN1CCN(C(=O)Cc2ccc(Nc3ncc(F)c(Nc4ccc(C(=O)Nc5ccccc5)cc4)n3)cc2)CC1 , the value recorded as its ΔTm at 10 µM is 0

Summary for this molecule, NC(=O)Cc1ccc(Nc2ncc(F)c(Nc3ccc(C(=O)Nc4ccccc4Cl)cc3)n2)cc1 : ΔTm at 10 µM is 0.2

For O=C(Cc1ccc(Nc2ncc(F)c(Nc3ccc(C(=O)Nc4ccccc4Cl)cc3)n2)cc1)NCCN1CCOCC1 the molecule record lists ΔTm at 10 µM as 0

# ΔTm at 10 µM of CCN1CCN(C(=O)Cc2ccc(Nc3ncc(F)c(Nc4ccc(C(=O)O)cc4)n3)cc2)CC1 = 0

###

molecular target: CLK1 (Homo sapiens); construct: purchased in-house thermal shift (DSF) kinase panel (SGC Frankfurt); Promega NanoBRET for AURKA/B/C; assay: Thermal shift assay; format: binding; conditions: compound 10 µM; n = 3; read-out: ΔTm CLK1
Sequence (P49759 148-484): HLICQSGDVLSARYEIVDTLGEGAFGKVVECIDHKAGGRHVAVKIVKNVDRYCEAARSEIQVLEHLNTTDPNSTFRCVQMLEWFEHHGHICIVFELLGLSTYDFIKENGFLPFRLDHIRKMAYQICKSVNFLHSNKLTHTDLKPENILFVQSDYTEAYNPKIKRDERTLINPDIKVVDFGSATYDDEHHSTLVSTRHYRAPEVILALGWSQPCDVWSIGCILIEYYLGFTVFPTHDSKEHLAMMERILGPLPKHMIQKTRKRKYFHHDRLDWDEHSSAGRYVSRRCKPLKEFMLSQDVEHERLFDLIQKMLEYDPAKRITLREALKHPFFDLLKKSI
What ΔTm at 10 µM was measured for each of the following?
Output should be the measured figure followed by the unit it is expressed in.

# ΔTm at 10 µM (compound: CCN1CCN(C(=O)Cc2ccc(Nc3ncc(F)c(Nc4ccc(C(=O)Nc5ccccc5)cc4)n3)cc2)CC1 ) is 1.5 °C

Short answer for NC(=O)Cc1ccc(Nc2ncc(F)c(Nc3ccc(C(=O)Nc4ccccc4Cl)cc3)n2)cc1 : ΔTm at 10 µM was 1.7 °C

Entry O=C(Cc1ccc(Nc2ncc(F)c(Nc3ccc(C(=O)Nc4ccccc4Cl)cc3)n2)cc1)NCCN1CCOCC1 , ΔTm at 10 µM reported as 0.4 °C

Entry CCN1CCN(C(=O)Cc2ccc(Nc3ncc(F)c(Nc4ccc(C(=O)O)cc4)n3)cc2)CC1 ; ΔTm at 10 µM = 0.5 °C

###

Task for the reader: assign each of the following compounds its reported ΔTm at 10 µM.
target: GRK5 (Homo sapiens); construct: purchased in-house thermal shift (DSF) kinase panel (SGC Frankfurt); Promega NanoBRET for AURKA/B/C; assay: Thermal shift assay; format: binding; details: compound 10 µM; n = 3; read-out: ΔTm GRK5
Sequence (P34947 186-514): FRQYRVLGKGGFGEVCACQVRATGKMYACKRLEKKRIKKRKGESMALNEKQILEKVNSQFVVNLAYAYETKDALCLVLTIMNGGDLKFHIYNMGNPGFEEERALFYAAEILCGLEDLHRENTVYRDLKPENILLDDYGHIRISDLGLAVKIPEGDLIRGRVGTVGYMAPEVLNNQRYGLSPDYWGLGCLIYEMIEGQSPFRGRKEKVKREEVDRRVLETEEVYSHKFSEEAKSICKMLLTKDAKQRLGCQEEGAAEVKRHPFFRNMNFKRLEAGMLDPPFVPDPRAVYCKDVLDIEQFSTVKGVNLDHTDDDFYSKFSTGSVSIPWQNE
The answer is to be given in °C; state only the numeric part.

Recorded ΔTm at 10 µM (compound CCN1CCN(C(=O)Cc2ccc(Nc3ncc(F)c(Nc4ccc(C(=O)O)cc4)n3)cc2)CC1 [ERJ2-12] ): 0.2

What the record says about NC(=O)Cc1ccc(Nc2ncc(F)c(Nc3ccc(C(=O)Nc4ccccc4Cl)cc3)n2)cc1 [ERJ2-06] : ΔTm at 10 µM is 0

Measured ΔTm at 10 µM, O=C(Cc1ccc(Nc2ncc(F)c(Nc3ccc(C(=O)Nc4ccccc4Cl)cc3)n2)cc1)NCCN1CCOCC1 [ERJ2-04] : 0.2

Just so you know, measured ΔTm at 10 µM for CCN1CCN(C(=O)Cc2ccc(Nc3ncc(F)c(Nc4ccc(C(=O)Nc5ccccc5)cc4)n3)cc2)CC1 [ERJ2-11] came out at 0.2

###

Biological target: AURKA (Homo sapiens, UniProt O14965)
Construct: full-length wild-type AURKA, AURKB, and AURKC were obtained as plasmids cloned in frame with a C-terminal NanoLuc-fusion; host or cells: HEK293T
Sequence (O14965 1-403): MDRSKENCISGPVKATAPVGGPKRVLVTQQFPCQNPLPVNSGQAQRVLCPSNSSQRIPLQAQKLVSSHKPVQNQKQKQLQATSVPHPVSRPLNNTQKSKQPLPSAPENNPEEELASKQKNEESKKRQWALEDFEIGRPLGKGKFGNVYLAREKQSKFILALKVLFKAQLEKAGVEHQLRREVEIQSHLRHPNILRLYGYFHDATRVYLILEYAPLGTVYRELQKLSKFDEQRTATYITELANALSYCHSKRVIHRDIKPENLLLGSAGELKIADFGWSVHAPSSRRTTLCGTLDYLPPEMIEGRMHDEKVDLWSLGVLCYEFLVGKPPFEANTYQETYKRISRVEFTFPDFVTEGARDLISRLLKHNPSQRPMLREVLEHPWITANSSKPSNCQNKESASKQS
Test: NanoBRET assay in HEK293T cells
Type: cell-based
Conditions: NanoBRET, HEK293T cells overexpressing the kinase; Table 2; read-out: AURKA IC50
Please provide measured IC50 for the entries that follow.
Express it in nM; write the number only.

So the reported IC50 for CCN1CCN(C(=O)Cc2ccc(Nc3ncc(F)c(Nc4ccc(C(=O)Nc5ccccc5)cc4)n3)cc2)CC1 , on AURKA (Homo sapiens, UniProt O14965), turned out to be 767

The value of IC50 recorded for O=C(Nc1ccccc1Cl)c1ccc(Nc2nc(Nc3ccc(CC(=O)N4CCOCC4)cc3)ncc2F)cc1 when tested on AURKA (Homo sapiens, UniProt O14965) reads 1080

Assay AURKA (Homo sapiens, UniProt O14965), sample CCN1CCN(C(=O)Cc2ccc(Nc3ncc(F)c(Nc4ccc(C(=O)N5CCN(CC)CC5)cc4)n3)cc2)CC1 , IC50 read: 37300

Lab note: molecule NC(=O)Cc1ccc(Nc2ncc(F)c(Nc3ccc(C(=O)Nc4ccccc4Cl)cc3)n2)cc1 tested on AURKA (Homo sapiens, UniProt O14965); recorded IC50 was 165

Form: item O=C(Cc1ccc(Nc2ncc(F)c(Nc3ccc(C(=O)Nc4ccccc4Cl)cc3)n2)cc1)NCCO ; test system AURKA (Homo sapiens, UniProt O14965); IC50: 237

AURKA (Homo sapiens, UniProt O14965) assay, molecule O=C(O)Cc1ccc(Nc2ncc(F)c(Nc3ccc(C(=O)Nc4ccccc4)cc3)n2)cc1 , recorded IC50 = 22800
